This listing pairs variants with measured normalized RNA/DNA level without ligand (log10).
B1: library; a variant is named by its letters at N, in order (parent)
chain: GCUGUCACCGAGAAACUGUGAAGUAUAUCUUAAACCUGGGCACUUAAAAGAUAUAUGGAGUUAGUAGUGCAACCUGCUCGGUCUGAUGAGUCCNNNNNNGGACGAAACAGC

variants of: B1; experiment: normalized RNA/DNA level without ligand (relative to sTRSVctl = 100) (log10 (% of sTRSVctl)); HEK293T; ligand: cyclic di-GMP (c-di-GMP-II aptamer); higher = less ribozyme self-cleavage, higher mRNA level; details: reporter: mCherry (pCS4076), ligand present: no
Give only the figure.

Please review the entries below; each comes with its answer.
| sequence code | value measured |
| --- | --- |
| GCUGUCACCGAGAAACUGUGAAGUAUAUCUUAAACCUGGGCACUUAAAAGAUAUAUGGAGUUAGUAGUGCAACCUGCUCGGUCUGAUGAGUCCGAGUCAGGACGAAACAGC | 1.82 |
| GCUGUCACCGAGAAACUGUGAAGUAUAUCUUAAACCUGGGCACUUAAAAGAUAUAUGGAGUUAGUAGUGCAACCUGCUCGGUCUGAUGAGUCCGGCGUGGGACGAAACAGC | 1.75 |
| GCUGUCACCGAGAAACUGUGAAGUAUAUCUUAAACCUGGGCACUUAAAAGAUAUAUGGAGUUAGUAGUGCAACCUGCUCGGUCUGAUGAGUCCCAAACGGGACGAAACAGC | 1.78 |
| GCUGUCACCGAGAAACUGUGAAGUAUAUCUUAAACCUGGGCACUUAAAAGAUAUAUGGAGUUAGUAGUGCAACCUGCUCGGUCUGAUGAGUCCCUGGUUGGACGAAACAGC | 1.67 |
| GCUGUCACCGAGAAACUGUGAAGUAUAUCUUAAACCUGGGCACUUAAAAGAUAUAUGGAGUUAGUAGUGCAACCUGCUCGGUCUGAUGAGUCCAAUGCAGGACGAAACAGC | 1.67 |

For the next question, use this variant.
// sample GCUGUCACCGAGAAACUGUGAAGUAUAUCUUAAACCUGGGCACUUAAAAGAUAUAUGGAGUUAGUAGUGCAACCUGCUCGGUCUGAUGAGUCCCUAAGAGGACGAAACAGC , its normalized RNA/DNA level without ligand (log10) was 1.53
